# method: ATG_PPRE_CIS: Attagene CIS-FACTORIAL HepG2 Assay for human Peroxisome Proliferator-activated Response Element (PPRE) (AID 2282958)
# details: HepG2 PPRE cis-element reporter, Attagene transcription factor profiling; actives raise or lower the signal
Calls of active or inactive are those of the source. How the source made its calls: active means hit-call score of the fitted dose curve at least 0.9, where 1 is the maximum; inactive means score below 0.9.
In this exercise, the only acceptable responses are 1.0 (active), 0.0 (inactive)

Query: Hi, sorry to bother you, what did the test record for CCCCCCOc1ccc(O)cc1 ?
Reply: 0.0

* * *

# target.system: Estrogen receptor (Homo sapiens) (UniProt P03372)
# Sequence (P03372 whole entry, looked up, the tested form may be a part): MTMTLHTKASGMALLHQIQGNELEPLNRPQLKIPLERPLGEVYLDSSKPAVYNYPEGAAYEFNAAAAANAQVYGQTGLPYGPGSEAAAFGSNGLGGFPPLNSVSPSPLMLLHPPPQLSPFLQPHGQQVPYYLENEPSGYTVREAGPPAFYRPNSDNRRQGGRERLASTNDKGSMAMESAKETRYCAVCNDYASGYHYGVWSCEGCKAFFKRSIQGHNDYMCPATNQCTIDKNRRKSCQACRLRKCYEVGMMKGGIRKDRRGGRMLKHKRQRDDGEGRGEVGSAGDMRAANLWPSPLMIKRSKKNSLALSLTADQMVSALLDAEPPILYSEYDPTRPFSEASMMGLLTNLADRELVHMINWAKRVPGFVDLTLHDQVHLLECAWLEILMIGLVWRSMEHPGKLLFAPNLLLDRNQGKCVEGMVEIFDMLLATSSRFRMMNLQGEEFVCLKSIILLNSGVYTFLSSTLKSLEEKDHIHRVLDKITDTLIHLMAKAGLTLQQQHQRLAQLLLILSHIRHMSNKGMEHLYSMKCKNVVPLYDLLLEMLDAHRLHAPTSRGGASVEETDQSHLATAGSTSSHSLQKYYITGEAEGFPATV
# method: OT_ER_ERaERa_0480: Odyssey Thera (OT) 8-hour HEK293T Protein-Complementation Assay for Estrogen Receptor-alpha/-alpha Homodimer (AID 2283351);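 further: rise in fluorescence from reassembled reporter fragments on ERα LBD homodimer in nucleus or whole cell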
# Description: OT_ER_ERaERa_0480 is a cell-based assay that uses HEK293T, a human kidney cell line, with measurements taken at 8 hours after chemical dosing in a 384-well plate.OT_ER_ERaERa_0480 is one of one assay component(s) measured or calculated from the OT_ER_ERaERa_0480 assay. […] This assay endpoint, OT_ER_ERaERa_0480, was analyzed in the positive analysis fitting direction relative to DMSO as the negative control and baseline of activity. […]
Results filed as inconclusive are left out. Calls of active or inactive are those of the source. The calls were made as follows: active = hit-call score of the fitted dose curve at least 0.9, where 1 is the maximum; inconclusive = response in the unintended direction; inactive = score below 0.9.
Valid outcomes are listed here; reply with one: active, inactive

The examples below pair each entry with its known result.
| molecule | target.system | assigned.label |
| --- | --- | --- |
| COc1ccccc1O | Estrogen receptor (Homo sapiens) (UniProt P03372) | inactive |
| CCNC(=S)NCC | Estrogen receptor (Homo sapiens) (UniProt P03372) | inactive |

Query: # outcome recorded in this test, key = COc1cc(OC)c2ccc(=O)oc2c1
Reply: inactive

Query: Which outcome was assigned to CCCCCCCCCOS(=O)(=O)O in this test?
Reply: inactive

Query: Hey, what did the test say about O=Cc1ccccc1O ?
Reply: inactive

Query: # outcome recorded in this test, key = O=C(OCc1ccccc1)c1ccccc1O
Reply: active

Query: Hi, do you know how CCCCCCOc1ccc(O)cc1 came out in this test?
Reply: active

Query: Could you check what this test reported for CC1=CCC(C(C)(C)O)CC1 (stereo not given) ?
Reply: inactive

* * *

# method: ATG_VDRE_CIS: Attagene CIS-FACTORIAL HepG2 Assay for human Vitamin D Receptor Element (VDRE) (AID 2282968)
# details: HepG2 VDRE cis-reporter transcription, actives raise or lower the signal
# Description: ATG_CIS is a cell-based, multiplexed-readout assay that uses HepG2, a human liver cell line, with measurements taken at 24 hours after chemical dosing in a 24-well plate.ATG_VDRE_CIS is one of 52 assay component(s) measured or calculated from the ATG_CIS assay. […] This assay endpoint, ATG_VDRE_CIS, was analyzed with bidirectional fitting relative to DMSO as the negative control and baseline of activity. […]
Calls of active or inactive are those of the source. How the source made its calls: active means hit-call score of the fitted dose curve at least 0.9, where 1 is the maximum; inactive means score below 0.9.
// allowed return values: Y = active, N = inactive

Worked set:
| smiles.record | assigned.label |
| --- | --- |
| O=C1OCc2ccccc21 | N |
| N#CCCNCCC#N | N |

Query: Record request — test call for CC=CC(=O)C1=C(C)C=CCC1(C)C
Reply: N

Query: Assay result, entry COC(=O)c1cccc(C(=O)OC)c1 — outcome?
Reply: N

Query: // param item: CCOC(=O)CC(C)C ; yields the recorded call
Reply: N

Query: What is the recorded call for this molecule in the test? Brc1cc(Br)cc(Br)c1
Reply: Y

Query: Hi, sorry to bother you, what did the test record for CN1CCc2cccc3c2[C@H]1Cc1ccc(O)c(O)c1-3 ?
Reply: N

* * *

# method: ATG_PPRE_CIS: Attagene CIS-FACTORIAL HepG2 Assay for human Peroxisome Proliferator-activated Response Element (PPRE) (AID 2282958)
# details: HepG2 PPRE cis-element reporter, Attagene transcription factor profiling; actives raise or lower the signal
The source made the active and inactive calls. The calls were made as follows: active = hit-call score of the fitted dose curve at least 0.9, where 1 is the maximum; inactive = score below 0.9.
The reply should name one outcome from True (active), False (inactive)

Answered cases to consult:
| compound | assigned.label |
| --- | --- |
| C1CCCNCC1 | False |
| C=C(C)C(=O)OCCN(C)C | False |
| CC(=O)N(C)C | False |

Could you now consider this next compound?
Query: What did this assay record as the result for CC1=C(C=O)C(C)(C)CCC1 ?
Reply: False

* * *

# target.system: human Thyroid Receptor alpha (THRa1), THRA (gene 7067)
# method: ATG_THRa1_TRANS: Attagene TRANS-FACTORIAL HepG2 Assay for human Thyroid Receptor alpha (THRa1) (AID 2283014)
# Protocol: ATG_TRANS is a cell-based, multiplexed-readout assay that uses HepG2, a human liver cell line, with measurements taken at 24 hours after chemical dosing in a 24-well plate.ATG_THRa1_TRANS is one of 30 assay component(s) measured or calculated from the ATG_TRANS assay. […] This assay endpoint, ATG_THRa1_TRANS, was analyzed in the positive analysis fitting direction relative to DMSO as the negative control and baseline of activity. […]
Records with an inconclusive call do not appear. Calls of active or inactive are those of the source. Rule for the calls: active = hit-call score of the fitted dose curve at least 0.9, where 1 is the maximum; inconclusive = response in the unintended direction; inactive = score below 0.9.
Hi there, use one of these labels in your reply, thanks! 1 (active), -1 (inactive)

Query: Given CC1=CC[C@@H](C(C)(C)O)CC1 , state the outcome it received in this test.
Reply: -1

Query: Lab log entry: CC(C)COC(=O)c1ccccc1O — outcome as called in the assay?
Reply: -1

Query: Dear all, I need the recorded test outcome for OCCN1CCOCC1 , thank you.
Reply: -1

* * *

# method: ATG_SREBP_CIS: Attagene CIS-FACTORIAL HepG2 Assay for human Sterol Regulatory Element Binding (SREBP) (AID 2282962)
# details: HepG2 Attagene cis-factorial SREBP reporter, mRNA; actives raise or lower the signal
Activity calls are given as the source filed them. Rule for the calls: active = hit-call score of the fitted dose curve at least 0.9, where 1 is the maximum; inactive = score below 0.9.
# output must be one of t (active), f (inactive)

Completed entries (count: 3):
| molecule | assigned.label |
| --- | --- |
| CCCCCC(=O)O[C@]1(C(C)=O)CC[C@H]2[C@@H]3CCC4=CC(=O)CC[C@]4(C)[C@H]3CC[C@@]21C | t |
| CC(=O)Nc1cc(S(=O)(=O)O)cc2cc(S(=O)(=O)O)c(N=Nc3ccccc3)c(O)c12 | f |
| CC(C)N(c1ccccc1)C(C)C | f |

Query: I would be grateful if you could indicate the recorded call for CC(C)OB(OC(C)C)OC(C)C .
Reply: f

Query: Write down the call the test reported for this molecule. Item: NC(=O)NC(N)=O
Reply: f

Query: Please share the test call associated with CCNC(=S)NCC .
Reply: f

Query: # outcome recorded in this test, key = c1ccc(OCCOc2ccccc2)cc1
Reply: f

Query: What did the test return for CC1=CC[C@@H](C(C)(C)O)CC1 ?
Reply: f

Query: Hi, sorry to bother you, what did the test record for CC(=N[Si](C)(C)C)O[Si](C)(C)C ?
Reply: f

Query: What was the test verdict on CC(C)(CO)CO ?
Reply: f

Query: How did this test come out for O=[N+]([O-])c1cc(N(CCO)CCO)ccc1NCCO ?
Reply: f

Query: Recorded test outcome, item CCCCOC(=O)C(C)OC(=O)CCC (stereo not drawn)
Reply: f

Query: Could you kindly confirm the outcome this assay logged for CC(C)Cc1ccccc1 ?
Reply: f

Query: Any idea what this test logged for CCc1cccc(O)c1 ?
Reply: f

Query: Which outcome was assigned to CCCc1ccc(N)cc1 in this test?
Reply: f

Query: Each molecule tested received a call. Report the one for C=CC(=O)OCCCCCC .
Reply: f

Query: Would you mind telling me which call this test gave CC(=O)Oc1c(C)c(C)c2c(c1C)CC[C@@](C)(CCC[C@H](C)CCC[C@H](C)CCCC(C)C)O2 ?
Reply: f

* * *

# method: BSK_3C_TissueFactor: BioMAP Diversity Plus: 3C Assay for Tissue Factor Biomarker Activity (AID 2282997)
# details: BioMAP 3C HUVEC, tissue factor biomarker readout; actives raise or lower the signal
The source made the active and inactive calls. The calls were made as follows: active = hit-call score of the fitted dose curve at least 0.9, where 1 is the maximum; inactive = score below 0.9.
Returns: one label drawn from active, inactive

See these solved cases before continuing.
| compound | assigned.label |
| --- | --- |
| COC(=O)c1ccc(C(=O)OC)cc1 | inactive |
| CC(C)(C)c1cccc(O)c1 | inactive |
| CCCCCCCCCCCCS | active |

Query: For O=S(=O)(O)C(F)(F)C(F)(F)OC(F)(F)C(F)(F)F , what call appears in the results of this test?
Reply: inactive

Query: Give the logged outcome of this assay for the following compound: O=C(O)C(F)(F)C(F)(F)C(F)(F)C(F)(F)C(F)(F)C(F)(F)C(F)(F)C(F)F
Reply: inactive

Query: Record lookup: outcome of this test for OCC(F)(OC(F)(F)C(F)(OC(F)(F)C(F)(F)C(F)(F)F)C(F)(F)F)C(F)(F)F (centres undefined) ?
Reply: inactive

* * *

# target.system: Estrogen receptor (Homo sapiens) + Estrogen receptor beta (Homo sapiens) (UniProt P03372+Q92731)
# Sequence (Q92731 whole entry, looked up, one chain of several): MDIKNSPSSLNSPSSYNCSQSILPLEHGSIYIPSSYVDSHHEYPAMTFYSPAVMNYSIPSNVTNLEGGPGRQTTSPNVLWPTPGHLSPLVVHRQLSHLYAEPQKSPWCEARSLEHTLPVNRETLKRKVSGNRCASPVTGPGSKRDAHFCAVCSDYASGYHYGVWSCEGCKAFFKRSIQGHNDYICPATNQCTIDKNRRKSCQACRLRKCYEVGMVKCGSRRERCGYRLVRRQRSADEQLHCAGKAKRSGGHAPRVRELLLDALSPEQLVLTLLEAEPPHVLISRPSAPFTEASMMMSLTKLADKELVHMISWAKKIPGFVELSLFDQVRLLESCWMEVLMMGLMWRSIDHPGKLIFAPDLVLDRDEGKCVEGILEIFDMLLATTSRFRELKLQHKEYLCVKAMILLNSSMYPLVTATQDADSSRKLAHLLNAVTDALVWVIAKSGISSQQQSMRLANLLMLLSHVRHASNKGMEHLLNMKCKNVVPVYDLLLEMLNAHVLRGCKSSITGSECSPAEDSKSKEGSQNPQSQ
# method: OT_ER_ERaERb_0480: Odyssey Thera (OT) 8-hour HEK293T Protein-Complementation Assay for Estrogen Receptor-alpha/-beta Heterodimer (AID 2283352)
Inconclusive results are not listed. Active and inactive are the calls of the source. The calls were made as follows: active = hit-call score of the fitted dose curve at least 0.9, where 1 is the maximum; inconclusive = response in the unintended direction; inactive = score below 0.9.
Result category, one only: active, inactive

Solved cases (8 shown):
| compound | assigned.label |
| --- | --- |
| CCCCCCCCCO | inactive |
| CCC(C)COC(=O)CC(C)C (centres undefined) | inactive |
| OCC=Cc1ccccc1 | inactive |
| COC(=O)c1ccc(C(=O)OC)cc1 | inactive |
| CC(=O)C1=C(C)[C@@H]2C[C@@]3(C1)[C@H](C)CC[C@H]3C2(C)C | active |
| CCCCCCOc1ccc(O)cc1 | active |
| c1ccc2scnc2c1 | inactive |
| CCC(C)(C)C1CCC(OC)CC1 (centres undefined) | inactive |

Query: # outcome recorded in this test, key = CCCO[Si](OCCC)(OCCC)OCCC
Reply: active

From: PubChem BioAssay (EPA / NIEHS)
